Data origin, for the record: patent US8846749B2

molecular target: P-gp (Homo sapiens, UniProt P08183); details: 1 h, 100 μM
Sequence (P08183 whole entry): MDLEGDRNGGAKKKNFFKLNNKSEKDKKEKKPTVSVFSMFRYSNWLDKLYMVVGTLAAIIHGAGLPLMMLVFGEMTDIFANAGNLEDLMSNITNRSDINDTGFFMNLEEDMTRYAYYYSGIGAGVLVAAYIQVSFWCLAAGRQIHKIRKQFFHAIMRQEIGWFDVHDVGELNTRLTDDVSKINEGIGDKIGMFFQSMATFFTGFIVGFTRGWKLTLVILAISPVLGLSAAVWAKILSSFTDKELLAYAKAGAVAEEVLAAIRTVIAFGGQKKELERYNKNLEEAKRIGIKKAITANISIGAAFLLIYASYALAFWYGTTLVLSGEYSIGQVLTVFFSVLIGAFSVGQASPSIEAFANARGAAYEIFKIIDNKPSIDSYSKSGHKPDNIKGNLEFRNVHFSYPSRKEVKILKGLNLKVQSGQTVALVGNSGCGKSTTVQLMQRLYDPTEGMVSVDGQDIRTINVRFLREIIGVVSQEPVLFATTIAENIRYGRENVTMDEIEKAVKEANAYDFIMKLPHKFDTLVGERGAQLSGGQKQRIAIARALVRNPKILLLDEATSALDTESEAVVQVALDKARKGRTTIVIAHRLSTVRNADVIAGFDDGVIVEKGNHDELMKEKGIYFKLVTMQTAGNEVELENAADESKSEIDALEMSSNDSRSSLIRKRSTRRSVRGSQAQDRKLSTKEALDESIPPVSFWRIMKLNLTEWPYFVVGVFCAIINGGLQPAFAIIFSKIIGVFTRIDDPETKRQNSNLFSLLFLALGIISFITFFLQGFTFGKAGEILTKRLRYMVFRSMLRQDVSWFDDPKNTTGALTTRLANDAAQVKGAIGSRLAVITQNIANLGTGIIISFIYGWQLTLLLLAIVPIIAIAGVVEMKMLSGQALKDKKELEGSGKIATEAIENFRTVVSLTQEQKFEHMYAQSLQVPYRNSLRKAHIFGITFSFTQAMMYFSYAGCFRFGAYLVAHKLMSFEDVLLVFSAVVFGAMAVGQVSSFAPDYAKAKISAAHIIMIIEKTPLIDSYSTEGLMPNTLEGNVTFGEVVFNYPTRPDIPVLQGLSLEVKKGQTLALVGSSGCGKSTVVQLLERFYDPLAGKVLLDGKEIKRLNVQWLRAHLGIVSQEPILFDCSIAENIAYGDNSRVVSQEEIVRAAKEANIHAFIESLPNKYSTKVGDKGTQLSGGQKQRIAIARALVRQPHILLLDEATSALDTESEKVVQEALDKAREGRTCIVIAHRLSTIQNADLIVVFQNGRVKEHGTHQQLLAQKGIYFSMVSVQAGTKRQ
Property Name: Cellular efflux amount of daunomycin (%)

>>> reading("O=c1c2c(OCC3CS3)cc(OCC3CS3)cc2oc2ccc3ccccc3c12 (centres unmarked)")
40.04
>>> reading("O=c1c2ccc3ccccc3c2oc2cc(OCC3CS3)cc(OCC3CS3)c12 (centres unmarked)")
40.39
>>> reading("O=c1c2cc3ccccc3cc2oc2cc(OCC3CS3)cc(OCC3CS3)c12 (centres unmarked)")
42.45
>>> reading("O=c1c2cc3ccccc3cc2oc2cc(OCC3CS3)cc(O)c12 (centres unmarked)")
44.15
>>> reading("O=c1c2c(O)cc(OCC3CS3)cc2oc2ccc3ccccc3c12 (centres unmarked)")
64.81

###

Reported values of melting point for individual entries
Property Name: melting point (°C)

>>> reading("COc1cccc2c(=O)c3c(O)cc(OCC4CS4)cc3oc12 (stereo not shown)")
187
>>> reading("O=c1c2ccccc2sc2cc(OCC3CS3)cc(O)c12 (stereo not shown)")
149
>>> reading("O=c1c2ccccc2oc2cc(OCC(O)CO)cc(O)c12 (stereo not shown)")
170
>>> reading("O=c1c2ccccc2sc2cc(OCC(S)CCl)cc(O)c12 (stereo not shown)")
134
>>> reading("O=c1c2ccccc2oc2cc(OCC(O)CCl)cc(O)c12 (stereo not shown)")
144
>>> reading("COc1cccc2c(=O)c3c(O)cc(OCC(S)CCl)cc3oc12 (stereo not shown)")
125
>>> reading("COc1cc(OCC(O)CCl)cc2oc3ccccc3c(=O)c12 (stereo not shown)")
107
>>> reading("COc1cccc2c(=O)c3c(O)cc(OCC(O)CCl)cc3oc12 (stereo not shown)")
184
>>> reading("O=c1c2ccccc2sc2cc(OCC(O)CCl)cc(O)c12 (stereo not shown)")
151
>>> reading("O=c1c2ccc3ccccc3c2oc2cc(OCC3CS3)cc(OCC3CS3)c12 (stereo not shown)")
202
>>> reading("COc1cccc2c(=O)c3c(OCC4CS4)cc(OCC4CS4)cc3oc12 (stereo not shown)")
240
>>> reading("COc1cccc2c(=O)c3c(O)cc(OCC(O)CO)cc3oc12 (stereo not shown)")
189

###

tested on: MCF-7/ADR cells; test: Effects of compounds on cytotoxicity of daunomycin (SRB staining); type: cell-based; conditions: Homo sapiens, NCI/ADR-RES, daunomycin alone (DMSO control), 2-hour incubation, SRB after 3 days
pIC50: −log10 of the molar value.
Property Name: pIC50

>>> reading("COc1cccc2c1C(=O)c1c(O)c3c(c(O)c1C2=O)C[C@@](O)(C(C)=O)C[C@@H]3O[C@H]1C[C@H](N)[C@H](O)[C@H](C)O1")
4.59

###

Property Name: melting point

>>> reading("O=c1c2c(OCC3CS3)cc(OCC3CS3)cc2oc2ccc3ccccc3c12 (stereo not shown)")
"225 to 226 °C"
>>> reading("O=c1c2c(OCC3CO3)cc(OCC3CO3)cc2oc2ccc3ccccc3c12 (stereo not shown)")
"198 to 200 °C"
>>> reading("O=c1c2cc3ccccc3cc2oc2cc(OCC3CO3)cc(O)c12 (stereo not shown)")
"201 to 202 °C"
>>> reading("O=c1c2c(O)cc(OCC3CS3)cc2oc2ccc3ccccc3c12 (stereo not shown)")
"167 to 168 °C"
